B1: library; a variant is named by its letters at N, in order (parent)
chain: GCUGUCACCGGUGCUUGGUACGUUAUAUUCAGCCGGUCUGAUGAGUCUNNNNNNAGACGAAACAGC

# Variants of: B1
# EXPERIMENTAL_DETAILS: normalized RNA/DNA level with ligand (relative to sTRSVctl = 100) (log10 (% of sTRSVctl)); HEK293T overexpressing SLC46A1; ligand concentration (+) RNA-Seq: 6 mM; higher = less ribozyme self-cleavage, higher mRNA level
# TEST_PARAMETERS: with (6R,S)-folinic acid; ligand present: yes
Some variants, each annotated with its measured normalized RNA/DNA level with ligand (log10).

Recorded normalized RNA/DNA level with ligand (log10), per entry:
UCGUAG
2
AUCGGG
2.05
GGCAAA
2.04
CUUGCC
2
UUUCUU
2.02

# normalized RNA/DNA level with ligand (log10) (variant: CCCUUC ) is 2.05

# normalized RNA/DNA level with ligand (log10) (variant: UGGUUA ) is 2.01

# normalized RNA/DNA level with ligand (log10) (variant: UCCUAG ) is 2.01

# normalized RNA/DNA level with ligand (log10) (variant: GGGCAC ) is 2.02

# normalized RNA/DNA level with ligand (log10) (variant: UCCUUU ) is 2.08

# normalized RNA/DNA level with ligand (log10) (variant: AGCCGU ) is 2.01
